- System: Mycobacterium tuberculosis
- PROCEDURE_SUMMARY: Antimycobacterial activity against Mycobacterium tuberculosis My 331/88 after 14 days by micromethod
- Type: functional
- CONDITION: My 331/88, 336 h
OBSERVABLE: MIC (µM)

| STRUCTURE_AS_SMILES | EXPERIMENTAL_TARGET | OBSERVABLE | RECORDED_NUMBER |
| --- | --- | --- | --- |
| O=[N+]([O-])c1ccc(CSc2nnn(Cc3ccc([N+](=O)[O-])cc3)n2)cc1 | Mycobacterium tuberculosis | MIC | 250 |
| NNC(=O)c1ccncc1 | Mycobacterium tuberculosis | MIC | 0.5 |
| O=[N+]([O-])c1cc(Cn2nnnc2[Se]Cc2ccccc2)cc([N+](=O)[O-])c1 | Mycobacterium tuberculosis | MIC | 8 |
| O=[N+]([O-])c1ccc(C[Se]c2nnnn2Cc2ccc([N+](=O)[O-])cc2)cc1 | Mycobacterium tuberculosis | MIC | 62 |
| O=[N+]([O-])c1ccc(C[Se]c2nnn(Cc3ccccc3)n2)c([N+](=O)[O-])c1 | Mycobacterium tuberculosis | MIC | 16 |

* * *

- Tested on: Mycobacterium kansasii
- PROCEDURE_SUMMARY: Antimycobacterial activity against Mycobacterium kansasii My 235/80 after 21 days by micromethod
- Format: functional
- CONDITION: My 235/80, 504 h
With a cut-off of 60 µM, any MIC strictly below it is called t; any MIC meeting it or above is called f.

| STRUCTURE_AS_SMILES | CLASS_NAME |
| --- | --- |
| Cn1nnnc1SCc1cc([N+](=O)[O-])cc([N+](=O)[O-])c1 | t |
| O=[N+]([O-])c1ccc(C[Se]c2nnnn2Cc2ccccc2)c([N+](=O)[O-])c1 | f |
| COc1ccc(C[Se]c2nnn(Cc3cc([N+](=O)[O-])cc([N+](=O)[O-])c3)n2)cc1 | t |
| O=[N+]([O-])c1cc(CSc2nnn(Cc3ccc(Cl)cc3)n2)cc([N+](=O)[O-])c1 | t |
| COc1ccc(C[Se]c2nnnn2Cc2cc([N+](=O)[O-])cc([N+](=O)[O-])c2)cc1 | f |
| O=[N+]([O-])c1ccc(CSc2nnnn2Cc2ccccc2)c([N+](=O)[O-])c1 | f |
| O=[N+]([O-])c1ccc(CSc2nnn(Cc3ccccc3)n2)c([N+](=O)[O-])c1 | f |
| Cn1nnnc1[Se]Cc1ccc([N+](=O)[O-])cc1[N+](=O)[O-] | f |
| O=[N+]([O-])c1cc(CSc2nnnn2Cc2ccc(Cl)cc2)cc([N+](=O)[O-])c1 | t |

* * *

Listed here are compounds together with their documented MIC.
- Test system: Mycobacterium tuberculosis
- PROCEDURE_SUMMARY: Antimycobacterial activity against Mycobacterium tuberculosis My 331/88 after 14 days by micromethod
- Format: functional
- CONDITION: My 331/88, 336 h

| STRUCTURE_AS_SMILES | MIC [µM] |
| --- | --- |
| Cn1nnc(SCc2cc([N+](=O)[O-])cc([N+](=O)[O-])c2)n1 | 2 |
| Cn1nnc([Se]Cc2cc([N+](=O)[O-])cc([N+](=O)[O-])c2)n1 | 1 |
| Cn1nnnc1SCc1ccc([N+](=O)[O-])cc1[N+](=O)[O-] | 16 |
| O=[N+]([O-])c1cc(CSc2nnnn2Cc2ccc(Cl)cc2)cc([N+](=O)[O-])c1 | 2 |
| O=[N+]([O-])c1ccc(CSc2nnnn2Cc2ccc([N+](=O)[O-])cc2)cc1 | 500 |
| Cn1nnnc1[Se]Cc1ccc([N+](=O)[O-])cc1[N+](=O)[O-] | 32 |
| O=[N+]([O-])c1ccc(C[Se]c2nnn(Cc3ccc([N+](=O)[O-])cc3)n2)cc1 | 62 |
| O=[N+]([O-])c1ccc(Cn2nnnc2[Se]Cc2ccccc2)c([N+](=O)[O-])c1 | 1 |
| COc1ccc(C[Se]c2nnn(Cc3cc([N+](=O)[O-])cc([N+](=O)[O-])c3)n2)cc1 | 4 |
| Cn1nnc(SCc2ccc([N+](=O)[O-])cc2[N+](=O)[O-])n1 | 4 |

* * *

- Tested on: Mycobacterium kansasii
- PROCEDURE_SUMMARY: Antimycobacterial activity against Mycobacterium kansasii My 235/80 after 21 days by micromethod
- Type: functional
- CONDITION: My 235/80, 504 h
Entries and their MIC values follow.
OBSERVABLE: MIC (µM)

| STRUCTURE_AS_SMILES | OBSERVABLE | RECORDED_NUMBER |
| --- | --- | --- |
| Cn1nnc([Se]Cc2ccc([N+](=O)[O-])cc2[N+](=O)[O-])n1 | MIC | 125 |
| O=[N+]([O-])c1cc(Cn2nnnc2SCc2ccccc2)cc([N+](=O)[O-])c1 | MIC | 62 |
| Cn1nnc(SCc2cc([N+](=O)[O-])cc([N+](=O)[O-])c2)n1 | MIC | 8 |
| O=[N+]([O-])c1cc(Cn2nnc([Se]Cc3ccccc3)n2)cc([N+](=O)[O-])c1 | MIC | 32 |
| O=[N+]([O-])c1ccc(C[Se]c2nnnn2Cc2ccc([N+](=O)[O-])cc2)cc1 | MIC | 125 |
| O=[N+]([O-])c1cc(CSc2nnnn2Cc2ccccc2)cc([N+](=O)[O-])c1 | MIC | 8 |
| O=[N+]([O-])c1cc(CSc2nnn(Cc3ccc(Cl)c(Cl)c3)n2)cc([N+](=O)[O-])c1 | MIC | 32 |
| Cn1nnnc1[Se]Cc1cc([N+](=O)[O-])cc([N+](=O)[O-])c1 | MIC | 32 |
| O=[N+]([O-])c1cc(Cn2nnnc2[Se]Cc2ccccc2)cc([N+](=O)[O-])c1 | MIC | 32 |

* * *

- Tested on: Mycobacterium kansasii
- PROCEDURE_SUMMARY: Antimycobacterial activity against Mycobacterium kansasii My 235/80 after 21 days by micromethod
- Format: functional
- CONDITION: My 235/80, 504 h
Threshold 30 µM: MIC strictly smaller gives fulfilled, otherwise not fulfilled.

| STRUCTURE_AS_SMILES | CLASS_NAME |
| --- | --- |
| O=[N+]([O-])c1cc(C[Se]c2nnnn2Cc2ccccc2)cc([N+](=O)[O-])c1 | fulfilled |
| COc1ccc(C[Se]c2nnnn2Cc2ccc([N+](=O)[O-])cc2[N+](=O)[O-])cc1 | not fulfilled |
| O=[N+]([O-])c1ccc(Cn2nnc([Se]Cc3ccccc3)n2)c([N+](=O)[O-])c1 | fulfilled |
| Cn1nnc([Se]Cc2cc([N+](=O)[O-])cc([N+](=O)[O-])c2)n1 | fulfilled |
| O=[N+]([O-])c1cc(Cn2nnc(SCc3ccccc3)n2)cc([N+](=O)[O-])c1 | not fulfilled |
| Cn1nnnc1SCc1ccc([N+](=O)[O-])cc1[N+](=O)[O-] | not fulfilled |
| O=[N+]([O-])c1cc(C[Se]c2nnn(Cc3ccccc3)n2)cc([N+](=O)[O-])c1 | fulfilled |

* * *

- Tested on: Mycobacterium tuberculosis
- PROCEDURE_SUMMARY: Antimycobacterial activity against Mycobacterium tuberculosis My 331/88 after 14 days by micromethod
- Assay type: functional
- CONDITION: My 331/88, 336 h

| STRUCTURE_AS_SMILES | MIC |
| --- | --- |
| O=[N+]([O-])c1ccc(C[Se]c2nnnn2Cc2ccccc2)c([N+](=O)[O-])c1 | 8 µM |
| O=[N+]([O-])c1cc(CSc2nnnn2Cc2ccc(Cl)c(Cl)c2)cc([N+](=O)[O-])c1 | 2 µM |
| O=[N+]([O-])c1cc(CSc2nnn(Cc3ccccc3)n2)cc([N+](=O)[O-])c1 | 1 µM |
| Cn1nnc([Se]Cc2ccc([N+](=O)[O-])cc2[N+](=O)[O-])n1 | 16 µM |
